# Test system: SK-MEL-2 melanoma
# Experiment Summary: NCI-60 one-dose screen, 48 h (100 = growth as untreated, 0 = no growth, -100 = all killed)
# Setup Conditions: 10 µM unless noted
# Procedure: Growth inhibition of the SK-MEL-2 human tumor cell line is measured as a screen for anti-cancer activity. Cells are grown in 96 well plates and exposed to the test compound for 48 hours. Compounds are tested at a single concentration, which is 10^-5 M for most compounds. The reported endpoint is percent growth (GI% or GIPRCNT), where numbers from 0 - 100% represent growth inhibition, and numbers from -100% - 0 represent cell death. For example, a value of 40 represents 60% growth inhibition. […]
This is part of a sample that, as a whole, favours compounds with a hit. Of some 83,000 tested, about 20% had one in any assay.
Mark true (1) only for growth values smaller than 80%; exact matches and larger values are false (0).

> print(dat)
                                    compound        cat
 1  CSC1=NC(=Nc2c(C)cccc2C)C2(CCC(C(C)(C)C)CC2)N1c1ccc(Cl)cc1 (stereo unspecified)   true (1)
 2  C[C@@H](C[C@H](CC1CC1)c1ccccc1)c1ccc2ccccc2c1  false (0)
 3      CCN(CC)CCCCCCCNc1cc(OC)cc2c(C)ccnc12  false (0)
 4  CCCCCCCCNC(C)C(O)c1ccc(SC(C)C)cc1 (stereo unspecified)   true (1)
 5        COC(=O)c1cc(Cl)cc([N+](=O)[O-])c1O  false (0)
 6     O=c1c2sc3ccccc3c2nnn1-c1ccc(F)c(Cl)c1   true (1)
 7  FC(F)(F)c1ccc(/C=N/Nc2nnc3n2N=C(c2ccc(Cl)cc2)CS3)cc1  false (0)
 8  O=C(NCC(c1ccsc1)N1CCCCCC1)c1ccc(C(F)(F)F)cc1 (stereo unspecified)  false (0)
 9   O=C(C=P(c1ccccc1)(c1ccccc1)c1ccccc1)CCl   true (1)
10  O=C1OC(c2ccc(-c3ccccc3)cc2)=C/C1=C/c1c(Cl)cccc1Cl  false (0)
11  COc1cccc(NC(=O)[C@H](C(C)C)n2c(=O)[nH]c3ccccc3c2=O)c1  false (0)
